test: Plasma stability; type: in vitro ADME; parameters: unit not given here; conditions: 37° C., 2 μM substrate
The reader will find reported STA Human Plasma 37 values listed item by item below.
I only need the number, thanks.

{"columns": ["Compound", "STA Human Plasma 37"],
 "data": [
  ["CCC(C)(C)OC(=O)OC[C@H]1O[C@@](C#N)(c2ccc3c(N)ncnn23)[C@H](OC(=O)OC(C)(C)CC)[C@@H]1OC(=O)OC(C)(C)CC [Compound 60]", 1584],
  ["N#C[C@@]1(c2ccc3c(N)ncnn23)O[C@H](COC(=O)OCC2(C(F)(F)F)CC2)[C@@H](O)[C@H]1O [Compound 120]", 38.7],
  ["COc1ccc(OC(=O)OC[C@H]2O[C@@](C#N)(c3ccc4c(N)ncnn34)[C@H](O)[C@@H]2O)cc1 [Compound 111]", 35]
]}

Per the record, COC(=O)[C@H]([C@@H](C)OC(=O)OC[C@H]1O[C@@](C#N)(c2ccc3c(N)ncnn23)[C@H](O)[C@@H]1O)N(C)C [Compound 78] has STA Human Plasma 37 of 336.23

Per the record, CC(C)(OC(=O)OC[C@H]1O[C@@](C#N)(c2ccc3c(N)ncnn23)[C@H](O)[C@@H]1O)C(F)F [Compound 76] has STA Human Plasma 37 of 1584

Per the record, CN1[C@@H]2CC[C@H]1C[C@@H](OC(=O)OC[C@H]1O[C@@](C#N)(c3ccc4c(N)ncnn34)[C@H](O)[C@@H]1O)C2 [Compound 156] has STA Human Plasma 37 of 248.79

Per the record, CC(C)OC(=O)OC[C@H]1O[C@@](C#N)(c2ccc3c(N)ncnn23)[C@H](O)[C@@H]1O [Compound 4] has STA Human Plasma 37 of 107.92

----------
The reader will find reported STA Human Plasma 37 values listed item by item below.
experiment: Plasma stability; type: in vitro ADME; parameters: unit not given here; conditions: 37° C., 2 μM substrate
I only need the number, thanks.

Field: example entries. Status: answers known.
{"columns": ["Compound", "STA Human Plasma 37"],
 "data": [
  ["CC(C)(C)COC(=O)OC[C@H]1O[C@@](C#N)(c2ccc3c(=N)n(COP(=O)(O)O)cnn23)[C@H](O)[C@@H]1O", 1584],
  ["N#C[C@@]1(c2ccc3c(N)ncnn23)O[C@H](COC(=O)OC2CC2)[C@@H](O)[C@H]1O", 156.68],
  ["N#C[C@@]1(c2ccc3c(N)ncnn23)O[C@H](COC(=O)OCC2CC(F)(F)C2)[C@@H](O)[C@H]1O", 41.2],
  ["CCC(C)(CC)OC(=O)OC[C@H]1O[C@@](C#N)(c2ccc3c(N)ncnn23)[C@H](O)[C@@H]1O", 294.49],
  ["N#C[C@@]1(c2ccc3c(N)ncnn23)O[C@H](COC(=O)OCCCCCCC(=O)O)[C@@H](O)[C@H]1O", 800.58],
  ["COC(C)(C)COC(=O)OC[C@H]1O[C@@](C#N)(c2ccc3c(N)ncnn23)[C@H](O)[C@@H]1O", 108],
  ["N#C[C@@]1(c2ccc3c(N)ncnn23)O[C@H](COC(=O)OCCCCC(=O)O)[C@@H](O)[C@H]1O", 1584],
  ["CC1=CCC(OC(=O)OC[C@H]2O[C@@](C#N)(c3ccc4c(N)ncnn34)[C@H](O)[C@@H]2O)(C(C)C)CC1 (some centres unmarked)", 205.11]
]}

Per the record, C[C@H](OC(=O)OC[C@H]1O[C@@](C#N)(c2ccc3c(N)ncnn23)[C@H](O)[C@@H]1O)c1ccccc1 has STA Human Plasma 37 of 1584

Per the record, CC(C)OC(=O)OC[C@H]1O[C@@](C#N)(c2ccc3c(N)ncnn23)[C@@H]2OC(=O)O[C@@H]21 has STA Human Plasma 37 of 24.2

Per the record, COCC(C)(C)OC(=O)OC[C@H]1O[C@@](C#N)(c2ccc3c(N)ncnn23)[C@H](O)[C@@H]1O has STA Human Plasma 37 of 1584

Per the record, CC(C)(OC(=O)OC[C@H]1O[C@@](C#N)(c2ccc3c(N)ncnn23)[C@H](O)[C@@H]1O)C(F)(F)F has STA Human Plasma 37 of 1177.1

Per the record, CC(=O)O[C@H]1[C@@H](OC(C)=O)[C@](C#N)(c2ccc3c(N)ncnn23)O[C@@H]1COC(=O)OC(C)(C)c1ccncc1 has STA Human Plasma 37 of 17.837

Per the record, N#CC12CC(COC(=O)OC[C@H]3O[C@@](C#N)(c4ccc5c(N)ncnn45)[C@H](O)[C@@H]3O)(C1)C2 has STA Human Plasma 37 of 107.7
